- Test system: SK-MEL-5 TRPM1 promoter luciferase reporter, 24 h
- test description: decrease of TRPM1 reporter luminescence in SK-MEL-5 – cell-based, dry powder samples, set 4, MITF inhibitor project, dose response (AID 624316)
Can you tell me AC50 for the items I'm about to list?

Indicate its recorded AC50; the molecule in question is `CCN1CCN(C2=C(NC(=O)c3ccccc3)C(=O)c3ccccc3C2=O)CC1` 0.582 µM

Tell me measured AC50 for `O=C(NC1=C(N2CCCCC2)C(=O)c2ccccc2C1=O)c1ccccc1` please. 25.6 µM

Return reported AC50. Input molecule: `C=CCNC1=C(N2CCSCC2)C(=O)c2ccccc2C1=O` 2.81 µM

Provide measured AC50 value, entry: `CC(=O)NC1=C(c2ccc(Oc3ccccc3)cc2)C(=O)c2ccccc2C1=O` 14.8 µM

Hello, please tell me recorded AC50 for this one: `COc1cccc(-c2cc(C(=O)NC3=C(Cl)C(=O)c4ccccc4C3=O)ccc2OC)c1` 3.3 µM

For the molecule `O=C(NC1=C(Cl)C(=O)c2ccccc2C1=O)c1ccccc1` , give its measured AC50 value. 0.854 µM

For the molecule `CCN1CCN(C2=C(NS(=O)(=O)c3ccc(Br)s3)C(=O)c3ccccc3C2=O)CC1` , give its reported AC50. 4.1 µM

Return the recorded AC50 value; entry: `O=C(NC1=C(N2CCOCC2)C(=O)c2ccccc2C1=O)c1ccccc1` 6 µM

Determine its reported AC50: `COc1ccc(C2=C(NC(=O)c3cccc(Cl)c3)C(=O)c3ccccc3C2=O)cc1` 19.9 µM

Tell us which AC50 value is on record for `O=C(NC1=C(N2CCCCC2)C(=O)c2ccccc2C1=O)c1ccc(Br)cc1` 36.2 µM

###

Consider the following compounds; for each one, report its AC50.
- System: SK-MEL-5 TRPM1 promoter luciferase reporter, 24 h
- test description: decrease of TRPM1 reporter luminescence in SK-MEL-5 – cell-based, dry powder samples, set 4, MITF inhibitor project, dose response (AID 624316)
The source made the active and inactive calls.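 Rule for the calls: active = compounds lowering reporter light with a fitted AC50 at or below twice their top valid dose; inconclusive = flat partial inhibition or an unreliable curve fit; inactive = the rest.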

Report AC50 for C=C1C(=O)OC2C1CC/C(C)=C\CCC1(C)OC21 (stereo not given) 4.91 µM

State, in one line, measured AC50 of `CC(=O)NC1=C(c2ccccc2)C(=O)c2ccccc2C1=O` 5.51 µM

Please supply the value of reported AC50 for the item `O=C1C(NS(=O)(=O)c2ccccc2)=C(N2CCCCC2)C(=O)c2ccccc21` 28.3 µM

Read off the recorded AC50 for `NC1=C(c2ccc(OC(F)(F)F)cc2)C(=O)c2ccccc2C1=O` 16.3 µM

Tell me its AC50 given `COc1ccc(C(=O)NC2=C(c3ccccc3)C(=O)c3ccccc3C2=O)cc1` as the entry. 10.9 µM

Please report AC50 for the following compound: `CCN(CC)CCCNC1=C(Nc2ccccc2)C(=O)c2ccccc2C1=O` 2.38 µM

Please report AC50 for the following compound: `Cc1ccc(C(=O)NC2=C(c3ccc(OC(F)(F)F)cc3)C(=O)c3ccccc3C2=O)o1` 15.4 µM

Using the record for `C=CCNC1=C(NCCCN2CCOCC2)C(=O)c2ccccc2C1=O` , state its measured AC50. 7.39 µM

Consider the compound `C[C@@H](NC1=C(Nc2ccccc2)C(=O)c2ccccc2C1=O)c1ccccc1` and give its recorded AC50. 9.76 µM

Give the reported value of AC50 for this record: `O=C(NC1=C(c2ccc(Oc3ccccc3)cc2)C(=O)c2ccccc2C1=O)c1ccccc1` > 70 µM (inactive)

###

- Tested on: SK-MEL-5 TRPM1 promoter luciferase reporter, 24 h
- test description: decrease of TRPM1 reporter luminescence in SK-MEL-5 – cell-based, dry powder samples, set 4, MITF inhibitor project, dose response (AID 624316)
metric: AC50

Please give measured AC50 of the following entry: `O=C1C(NS(=O)(=O)c2ccc(Br)s2)=C(N2CCOCC2)C(=O)c2ccccc21` 19.9 µM

Return the recorded AC50 value; entry: `O=C(NC1=C(c2ccc(OC(F)(F)F)cc2)C(=O)c2ccccc2C1=O)c1ccccc1` 32 µM

In one line, give reported AC50 of the entry `O=C1C(NS(=O)(=O)c2ccc(Br)cc2)=C(N2CCCCC2)C(=O)c2ccccc21` . 14.2 µM

For `COc1ccc(C2=C(N)C(=O)c3ccccc3C2=O)cc1` , write its AC50. 25.1 µM

Assign AC50 to the following record: `COc1ccc(C2=C(NC(=O)c3ccc(Cl)cc3)C(=O)c3ccccc3C2=O)cc1` 16.4 µM

Provide one value: measured AC50 of `CC(=O)NC1=C(c2cccc(Cl)c2)C(=O)c2ccccc2C1=O` 3.93 µM

Let me know recorded AC50 for `O=C1C(NS(=O)(=O)c2ccc(Br)cc2)=C(N2CCOCC2)C(=O)c2ccccc21` , thanks. 6.87 µM

Name the recorded AC50 of the item `CC(=O)N(C)C1=C(N2CCOCC2)C(=O)c2ccccc2C1=O` in your answer. 1.89 µM

Give AC50 for `O=C(NC1=C(c2ccc(OC(F)(F)F)cc2)C(=O)c2ccccc2C1=O)c1ccccc1F` 17.1 µM

Give the reported value of AC50 for this record: `COc1ccc(C2=C(NC(=O)c3ccccc3Cl)C(=O)c3ccccc3C2=O)cc1` 6.21 µM

###

- Test system: SK-MEL-5 TRPM1 promoter luciferase reporter, 24 h
- test description: decrease of TRPM1 reporter luminescence in SK-MEL-5 – cell-based, dry powder samples, set 4, MITF inhibitor project, dose response (AID 624316)
metric: AC50

# return recorded AC50 for input `O=C(NC1=C(c2ccccc2)C(=O)c2ccccc2C1=O)c1ccc(Br)cc1` 12.3 µM

Supply reported AC50 belonging to this molecule: `O=C1C(NS(=O)(=O)c2cccs2)=C(N2CCCCC2)C(=O)c2ccccc21` 21.7 µM

Quickly give me recorded AC50 for `CN1CCN(C2=C(NC(=O)c3ccc(Br)cc3)C(=O)c3ccccc3C2=O)CC1` 0.921 µM

Provide one value: measured AC50 of `C=CCNC1=C(NCCN(CC)CC)C(=O)c2ccccc2C1=O` 1.75 µM

###

- Test system: SK-MEL-5 TRPM1 promoter luciferase reporter, 24 h
- test description: decrease of TRPM1 reporter luminescence in SK-MEL-5 – cell-based, dry powder samples, set 4, MITF inhibitor project, dose response (AID 624316)
Answer each item with its documented AC50.

Note down AC50 recorded for `CCN(CC)CCCCNC1=C(Nc2ccccc2)C(=O)c2ccccc2C1=O` 2.87 µM

Look up and report measured AC50 for this entry: `CC(=O)N(C)C1=C(N2CCCCC2)C(=O)c2ccccc2C1=O` 0.7 µM

Look up and state reported AC50 for `C=CCNC1=C(Nc2ccccc2)C(=O)c2ccccc2C1=O` 12.4 µM

Identify measured AC50 corresponding to `O=C1C(NS(=O)(=O)c2ccc(Br)s2)=C(N2CCCCC2)C(=O)c2ccccc21` 19.3 µM

Specify measured AC50 for `C=CCNC1=C(N2CCN(C)CC2)C(=O)c2ccccc2C1=O` . 3.74 µM

Item `CCN(CC)CCCNC1=C(N(C)C(C)=O)C(=O)c2ccccc2C1=O` : provide AC50 0.188 µM

Identify the reported AC50 for the following entry. `O=C(NC1=C(N2CCOCC2)C(=O)c2ccccc2C1=O)c1ccc(Br)cc1` 11.3 µM

Tell me measured AC50 for `CN1CCN(C2=C(NS(=O)(=O)c3ccc(Br)s3)C(=O)c3ccccc3C2=O)CC1` please. 2.57 µM

Identify AC50 associated with the compound `O=C(NC1=C(N2CCN(c3ccccc3)CC2)C(=O)c2ccccc2C1=O)c1ccccc1` 15 µM

Give the reported AC50 for this compound. `O=C1C(Nc2ccccc2)=C(N2CCSCC2)C(=O)c2ccccc21` 7.75 µM

###

Could you please report measured AC50 for the items listed next?
- Test system: SK-MEL-5 TRPM1 promoter luciferase reporter, 24 h
- test description: decrease of TRPM1 reporter luminescence in SK-MEL-5 – cell-based, dry powder samples, set 4, MITF inhibitor project, dose response (AID 624316)
Calls of active or inactive are those of the source.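 How the source made its calls: active means compounds lowering reporter light with a fitted AC50 at or below twice their top valid dose; inconclusive means flat partial inhibition or an unreliable curve fit; inactive means the rest.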

Tell me its AC50 given `O=C1C=C(Nc2ccccc2)C(=O)c2ccccc21` as the entry. 4.07 µM

Please give the documented AC50 of `O=C1C(NCCCN2CCOCC2)=C(Nc2ccccc2)C(=O)c2ccccc21` 4.03 µM

Output AC50 of `COc1ccc(C(=O)NC2=C(c3ccc(OC)cc3)C(=O)c3ccccc3C2=O)cc1` 8.59 µM

Check the records and state AC50 for `O=C(NC1=C(c2ccccc2)C(=O)c2ccccc2C1=O)c1ccccc1` 6.77 µM

Tell me AC50 reported for `CC(=O)NC1=C(c2ccc3c(c2)oc2ccccc23)C(=O)c2ccccc2C1=O` 1.59 µM

Consider the molecule `C=CCNC1=C(N(C)C(C)=O)C(=O)c2ccccc2C1=O` and give its recorded AC50. 0.107 µM

Item `CN1CCN(C2=C(Nc3ccccc3)C(=O)c3ccccc3C2=O)CC1` : provide AC50 4.78 µM

Name the recorded AC50 of the item `O=C1C(NS(=O)(=O)c2cccs2)=C(N2CCOCC2)C(=O)c2ccccc21` in your answer. 9.86 µM

Specify measured AC50 for `C=CCNC1=C(NS(=O)(=O)c2cccs2)C(=O)c2ccccc2C1=O` . 12 µM

Report measured AC50; entry is `COc1ccc(C2=C(NC(C)=O)C(=O)c3ccccc3C2=O)cc1` 5.44 µM

For `O=C1C(Nc2ccccc2)=C(N2CCCCC2)C(=O)c2ccccc21` , write its AC50. 2.78 µM

Return AC50 (reported value) for this molecule: `O=C(NC1=C(N2CCSCC2)C(=O)c2ccccc2C1=O)c1ccc(Br)cc1` 8.75 µM

Answer with the recorded AC50 for the molecule listed here: `O=C1C(NS(=O)(=O)c2ccc(Br)cc2)=C(c2ccc(OC(F)(F)F)cc2)C(=O)c2ccccc21` 12 µM

Provide only the value of recorded AC50 for `C=CCNC1=C(NC(=O)c2ccccc2)C(=O)c2ccccc2C1=O` 11.7 µM

For the molecule `COC1=C(NS(=O)(=O)c2ccccc2)C(=O)c2ccccc2C1=O` , give its measured AC50 value. 6.65 µM

Answer with the recorded AC50 for the molecule listed here: `O=C(NC1=C(N2CCSCC2)C(=O)c2ccccc2C1=O)c1ccccc1` 3.61 µM

Dear colleague, please send me the reported AC50 for `COc1ccc(C2=C(NC(=O)c3ccc4ccccc4c3)C(=O)c3ccccc3C2=O)cc1` when you can. > 70 µM (inactive)

For the molecule `O=C(NC1=C(c2ccc(OC(F)(F)F)cc2)C(=O)c2ccccc2C1=O)c1ccco1` , report AC50. 21 µM

Retrieve AC50 measured for `COc1ccc(C2=C(NC(=O)c3cccc(OC)c3)C(=O)c3ccccc3C2=O)cc1` and print it. 11.4 µM

Quickly give me recorded AC50 for CCN1c2ccccc2NC2N=C(OC)C(c3ccccc3)C21 (stereo unspecified) 2.5 µM

Give AC50 for `O=C1C(NS(=O)(=O)c2ccccc2)=C(N2CCOCC2)C(=O)c2ccccc21` 18.5 µM
